Source listed as ChEMBL document CHEMBL3885861.

- Species: Rattus norvegicus
- test: Open TG-GATES - Regimen: Daily Repeat
- Type: toxicity, organism-based, Sprague-Dawley
- Set-up: regimen Daily Repeat, gender Male, age 6 weeks
- conditions.used: in vivo, po, 300 mg/kg, […], tissue Blood, route gavage, dose level Middle, time 28 day
Assign MCHC to each entry below.
Number only, in %; omit the unit.

# MCHC of CCCCNC(=O)NS(=O)(=O)c1ccc(C)cc1 [TOLBUTAMIDE] = 34

# MCHC of `O=C(O)c1ccccc1Nc1ccccc1` = 34.7

# MCHC of CC(S)C(=O)NCC(=O)O (centres undefined) = 35.5

# MCHC of `CC(=O)[C@@]1(O)CC[C@H]2[C@@H]3C=C(Cl)C4=CC(=O)CC[C@]4(C)[C@H]3CC[C@@]21C` = 34.9
